tested on: Xenopus laevis tadpoles; assay: Tadpole loss of righting (LRR) and swimming (LSR) reflexes; assay type: in vivo; details: 3 h equilibration at room temperature, read-out: LSR EC50 (loss of swimming response)
Criterion: EC50 strictly under 3 µM. Met: 1 (yes). Not met: 0 (no).

{"columns": ["MOLECULE", "LABEL_VALUE"],
 "data": [
  ["CC12CCC(O)CC1CCC1C2CCC23C=CC(=O)CC2CCC13 (stereo not shown) [Compound 30b]", "0 (no)"],
  ["CC12CCC(O)CC1CCC1C2CCC23C(=O)C=CCC2CCC13 (stereo not shown) [Compound 35a]", "1 (yes)"],
  ["CC12CCC(O)CC1CCC1C2CCC23CC4OC4C(=O)C2CCC13 (stereo not shown) [Compound 19b]", "0 (no)"],
  ["CC12CCC(O)CC1CCC1C2CCC23CC(=O)C=CC2CCC13 (stereo not shown) [Compound 22c]", "1 (yes)"],
  ["CC12CCC(O)CC1CCC1C2CCC23CC(=O)C=CC2CCC13 (stereo not shown) [Compound 21c]", "0 (no)"],
  ["CC12CCC(O)CC1CCC1C2CCC23C(=O)C=CCC2CCC13 (stereo not shown) [Compound 35b]", "1 (yes)"],
  ["CC12CCC(O)CC1CCC1C2CCC23C(=O)CCCC2CCC13 (stereo not shown)", "1 (yes)"]
]}

====

Below: a set of entries, each annotated with reported melting point.

{"columns": ["MOLECULE", "melting point"],
 "data": [
  ["CC12CCC(O)CC1CCC1C2CCC23CC=CC(=O)C2CCC13 (stereo not drawn) [Compound 11b]", "253 to 254 °C"],
  ["CC12CCC(O)CC1CCC1C2CCC23CC4OC4C(=O)C2CCC13 (stereo not drawn) [Compound 19b]", "194 to 195 °C"],
  ["C[C@]12CC[C@@H](O)C[C@@H]1CCC1C3CC[C@@H]4[C@]5(CCC[C@]34CCC12)CO5 (stereo partly drawn) [Compound 74]", "206 to 211 °C (dec.)"],
  ["CC12CCC(O)CC1CCC1C2CCC23CCCC(O)C2CCC13 (stereo not drawn) [Compound 67]", "261 to 262 °C"],
  ["CC12CCC(O)CC1CCC1C2CCC23C=CC(=O)CC2CCC13 (stereo not drawn) [Compound 30a]", "168 to 170 °C"],
  ["CC12CCC(O)CC1CCC1C2CCC23C(=O)CCCC2CCC13 (stereo not drawn) [Compound 5b]", "177 to 178 °C"]
]}

====

molecular target: GABAA receptor ([35S]-TBPS binding site, rat brain cortical membranes); test: Displacement of [35S]-TBPS binding, rat brain cortical membranes; settings: 5 μM GABA, 2 nM [35S]-TBPS; ± standard error of the means
pIC50: −log10 of the molar value.

{"columns": ["MOLECULE", "pIC50"],
 "data": [
  ["CC(=O)C1CCCC23CCC4C(CCC5CC(O)CCC54C)C2CCC13 (centres unmarked) [Compound 79]", 7.03],
  ["C[C@]12CC[C@@H](O)C[C@@H]1CCC1C3CC[C@@H]4CC[C@H](C#N)C[C@]34CCC12 (some centres unmarked)", 6.32],
  ["C[C@]12CC[C@@H](O)C[C@@H]1CCC1C3CC[C@@H]4[C@H](C#N)CCC[C@]34CCC12 (some centres unmarked)", 5.78],
  ["C[C@]12CC[C@@H](O)C[C@@H]1CCC1C3CC[C@@H]4[C@H]5O[C@H]5CC[C@]34CCC12 (some centres unmarked)", 6.22],
  ["C[C@]12CC[C@@H](O)C[C@@H]1CCC1C3CC[C@@H]4C=CC=C[C@]34CCC12 (some centres unmarked)", 6.33],
  ["C[C@]12CC[C@@H](O)C[C@@H]1CCC1C3CC[C@@H]4[C@@H](C#N)CCC[C@]34CCC12 (some centres unmarked)", 6.76],
  ["CC12CCC(O)CC1CCC1C2CCC23CCC(=O)CC2CCC13 (centres unmarked)", 5.49],
  ["CC12CCC(O)CC1CCC1C2CCC23C(=O)C=CCC2CCC13 (centres unmarked) [Compound 35b]", 6.98]
]}

====

Below: a set of entries, each annotated with reported LRR ED50 (loss of righting response).
tested on: Xenopus laevis tadpoles; assay: Tadpole loss of righting (LRR) and swimming (LSR) reflexes; assay type: in vivo; settings: 3 h equilibration at room temperature

{"columns": ["MOLECULE", "BOUND_TYPE", "LRR ED50 (loss of righting response) (nM)"],
 "data": [
  ["C[C@]12CC[C@@H](O)C[C@@H]1CCC1C3CC[C@@H]4[C@@H](C#N)CCC[C@]34CCC12 (some centres unmarked)", ">", 10000],
  ["C[C@]12CC[C@@H](O)C[C@H]1CCC1C3CC[C@@H]4C(=O)CCC[C@]34CCC12 (some centres unmarked)", "=", 940],
  ["C[C@]12CC[C@@H](O)C[C@@H]1CCC1C3CC[C@@H]4CC[C@H](C#N)C[C@]34CCC12 (some centres unmarked)", "=", 350],
  ["CC12CCC(O)CC1CCC1C2CCC23CCC=CC2CCC13 (centres unmarked) [Compound 13b]", "=", 1280],
  ["CC12CCC(O)CC1CCC1C2CCC23CC4OC4C(=O)C2CCC13 (centres unmarked) [Compound 19a]", "=", 1750],
  ["CC12CCC(O)CC1CCC1C2CCC23C(=O)CCCC2CCC13 (centres unmarked) [Compound 5b]", "=", 400],
  ["CC12CCC(O)CC1CCC1C2CCC23CC(=O)C=CC2CCC13 (centres unmarked) [Compound 22c]", "=", 1050]
]}

====

Below: a set of entries, each annotated with reported LRR ED50 (loss of righting response).
System: Xenopus laevis tadpoles
Experiment: Tadpole loss of righting (LRR) and swimming (LSR) reflexes
Format: in vivo
Conditions: 3 h equilibration at room temperature
Experimental: Tadpole LRR was measured as described previously. (See, Wittmer, L. L., et al., Enantioselectivity of steroid-induced γ-aminobutyric acidA receptor modulation and anesthesia, Mol. Phar., 1996, 50:1581-1586). […] After equilibrating at room temperature for 3 h, tadpoles were evaluated using the LRR and LSR behavioral endpoints. […]

{"columns": ["COMPOUND", "EXPERIMENTAL_TARGET", "LRR ED50 (loss of righting response)"],
 "data": [
  ["C[C@]12CC[C@@H](O)C[C@@H]1CCC1C3CC[C@@H]4[C@@]5(CCC[C@]34CCC12)CO5 (stereo partly shown) [Compound 73]", "Xenopus laevis tadpoles", "4000 ± 1080 nM"],
  ["COC1CCCC23CCC4C(CCC5CC(O)CCC54C)C2CCC13 (stereo not shown) [Compound 70]", "Xenopus laevis tadpoles", ">10000 nM"],
  ["CC12CCC(O)CC1CCC1C2CCC23C(=O)C=CCC2CCC13 (stereo not shown) [Compound 35a]", "Xenopus laevis tadpoles", "1020 ± 0 nM"],
  ["C[C@]12CC[C@@H](O)C[C@@H]1CCC1C3CC[C@@H]4C[C@@H](C#N)CC[C@]34CCC12 (stereo partly shown) [Compound 44]", "Xenopus laevis tadpoles", "300 ± 30 nM"],
  ["C[C@]12CC[C@@H](O)C[C@@H]1CCC1C3CC[C@@H]4CC[C@@H](C#N)C[C@]34CCC12 (stereo partly shown) [Compound 49]", "Xenopus laevis tadpoles", "350 ± 90 nM"],
  ["C[C@]12CC[C@@H](O)C[C@@H]1CCC1C3CC[C@@H]4[C@H](C#N)CCC[C@]34CCC12 (stereo partly shown) [Compound 39]", "Xenopus laevis tadpoles", "490 ± 90 nM"],
  ["CC(=O)[C@H]1CC[C@H]2[C@@H]3CC[C@@H]4C[C@H](O)CC[C@]4(C)[C@H]3CC[C@]12C [Compound 1b, (3α,5β)-3-Hydroxypregnan-20-one, reference compound]", "Xenopus laevis tadpoles", "63 ± 3 nM"],
  ["CC12CCC(O)CC1CCC1C2CCC23C(=O)C=CCC2CCC13 (stereo not shown) [Compound 35b]", "Xenopus laevis tadpoles", "400 ± 130 nM"],
  ["C[C@]12CC[C@@H](O)C[C@@H]1CCC1C3CC[C@@H]4C(C#N)=CCC[C@]34CCC12 (stereo partly shown) [Compound 57]", "Xenopus laevis tadpoles", "420 nM"],
  ["CC12CCC(O)CC1CCC1C2CCC23C(=O)CCCC2CCC13 (stereo not shown) [Compound 5a]", "Xenopus laevis tadpoles", "320 ± 20 nM"],
  ["CC12CCC(O)CC1CCC1C2CCC23CCC=CC2CCC13 (stereo not shown) [Compound 13a]", "Xenopus laevis tadpoles", ">10000 nM"],
  ["C[C@]12CC[C@@H](O)C[C@@H]1CCC1C3CC[C@@H]4C[C@H](C#N)CC[C@]34CCC12 (stereo partly shown) [Compound 45]", "Xenopus laevis tadpoles", ">10000 nM"]
]}
